system.under.test: HIF1A
protocol.details: HeLa, 100 nM transfected, 24 h, mean of 3
condition.description: ASO
Bases are written 5' to 3'; sugars and linkages follow in the same order, as letters with counts (s phosphorothioate, o phosphodiester; PS: all linkages phosphorothioate). C may stand for cytosine or 5-methylcytosine; the collection does not tell. l = locked nucleic acid (LNA); d = 2'-deoxy (DNA)
observable: caspase activation (% of PBS control)
Please give only the number in your answer, with no unit.

Use these answered entries as a reference point.
GTTACTGCCTTCTTAC (sugars lldldddddddlldll, PS)    163
CAAGCATCCTGTA (sugars l1 d1 l1 d8 l2, PS)    171

Task: Lookup: caspase activation (% of PBS control) / HIF1A / GTTACTGCCTTCTTAC (sugars ldlllddddddldlll, PS)
Result: 427

Task: Field: caspase activation (% of PBS control) (HIF1A). Entry: ACTGCCTTCTTAC (sugars l1 d9 l1 d1 l1, PS)
Result: 140

Task: Report caspase activation (% of PBS control) for CAAGCATCCTGTA (sugars l2 d1 l1 d8 l1, PS) tested on HIF1A.
Result: 123

Task: Notebook: pull reported caspase activation (% of PBS control) for HIF1A, entry GTTACTGCCTTCTTAC (sugars l4 d9 l3, PS)
Result: 160
